- System: KHYG-1 (IL-2 2.5 ng/mL);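 also: normalised to DMSO-only wells as negative and benzethonium chloride as positive control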
- experimental_details: percent inhibition of viability; higher = more inhibition
- measurement_setup: 72 h; 10000 nM
endpoint_label: percent inhibition of viability (%)
Answer with a number only, understood to be in %.

Some solved entries appear below for comparison.
In: Return reported percent inhibition of viability; argument: Cc1ccc(Nc2nccc(N(C)c3ccc4c(C)n(C)nc4c3)n2)cc1S(N)(=O)=O [Pazopanib] (max concentration tested 10000 nM)
Out: 36.6

In: Now the compound C[C@]12C=CC(=O)C=C1CC[C@@H]1[C@@H]2[C@@H](O)C[C@@]2(C)[C@H]1CC[C@]2(O)C(=O)CO [Prednisolone] (max concentration tested 10000 nM)
Out: 34.5

New cases:
In: Return reported percent inhibition of viability; argument: CC1(C)CCC(c2ccc(Cl)cc2)=C(CN2CCN(c3ccc(C(=O)NS(=O)(=O)c4ccc(N[C@H](CCN5CCOCC5)CSc5ccccc5)c(S(=O)(=O)C(F)(F)F)c4)cc3)CC2)C1 [Navitoclax] (max concentration tested 10000 nM)
Out: 96.3
